Tested on: Phakopsora pachyrhizi (the causal agent of Asian soybean rust)
Experiment Description: Test A: preventive spray on soybean seedlings, Asian soybean rust, visual disease rating
Format: in vivo
Conditions: test suspension 10 ppm; soybean seedlings; 100 = 100% disease control, 0 = no control
Parameter: Test A disease control rating (%)
Hi! Could you send only the number? It should be in %, unit omitted.

Query block: For Cc1cc(C(=O)OCC#N)nn1Cc1ccc(-c2noc(C(F)(F)F)n2)cc1 [compound 185] , write its Test A disease control rating.
Result block: 100

Query block: For the molecule `COC(=O)c1ccc2cnn(Cc3ccc(-c4noc(C(F)(F)F)n4)cc3)c2c1` , give its measured Test A disease control rating value.
Result block: 100

Query block: For the molecule `CCOC(=O)c1cnn(Cn2nc(-c3noc(C(F)(F)F)n3)ccc2=O)c1` , give its reported Test A disease control rating.
Result block: 0

Query block: Provide one value: measured Test A disease control rating of `NC(=O)c1csc(Cc2ccc(-c3noc(C(F)(F)F)n3)cc2)n1`
Result block: 100

Query block: Note Test A disease control rating for the molecule shown: `FC(F)(F)c1nc(-c2ccc(OCc3cccnc3)cc2)no1`
Result block: 0

Query block: Name the recorded Test A disease control rating of the molecule listed here: `FC(F)(F)c1nc(-c2ccc(OCc3ccon3)cc2)no1`
Result block: 0

Query block: Give me measured Test A disease control rating, please, for this molecule: `CCOC(=O)c1cnn(Cn2ccc(-c3noc(C(F)(F)F)n3)cc2=O)c1`
Result block: 100

Query block: Determine from records and report Test A disease control rating for `O=C(c1coc(Cc2ccc(-c3noc(C(F)(F)F)n3)cc2)n1)N1CCC(F)(F)CC1`
Result block: 100

Query block: Tell me measured Test A disease control rating for `COCCNC(=O)c1nn(Cc2ccc(-c3noc(C(F)(F)F)n3)cc2)c2ccccc12` please.
Result block: 100

Query block: Tell me its Test A disease control rating given `O=C(O)c1csc(Cc2ccc(-c3noc(C(F)(F)F)n3)cc2)n1` as the entry.
Result block: 96

Query block: Identify Test A disease control rating associated with the molecule `CCOC(=O)c1nn(Cc2ccc(-c3noc(C(F)(F)F)n3)cc2)c(C(=O)OCC)c1C(=O)OCC`
Result block: 85

Query block: Tell me Test A disease control rating reported for `CC(C)OC(=O)c1cnn(Cc2ccc(-c3noc(C(F)(F)F)n3)cc2)c1`
Result block: 100

Query block: Give the measured Test A disease control rating for `Cc1cc2nn(Cc3ccc(-c4noc(C(F)(F)F)n4)cc3)cc2cc1Br`
Result block: 100

Query block: State its Test A disease control rating for this molecule: `C=CC(F)(F)OC(=O)c1cnn(Cc2ccc(-c3noc(C(F)(F)F)n3)cc2)c1`
Result block: 100

Query block: Tell me measured Test A disease control rating for `Cn1ccc(CNC(=O)c2coc(Cc3ccc(-c4noc(C(F)(F)F)n4)cc3)n2)n1` please.
Result block: 100

Query block: Using known records, supply Test A disease control rating for `CC(C)OC(=O)c1cnn(Cc2ccc(-c3noc(C(F)(F)F)n3)s2)c1`
Result block: 100

Query block: Return Test A disease control rating (reported value) for this molecule: `N#Cc1coc(Cc2ccc(-c3noc(C(F)(F)F)n3)cc2)n1`
Result block: 100
